The measured values listed here are drawn from patent US11339171B2.

Let's go through some recorded IC50 values for MDM2 (Homo sapiens, UniProt Q00987) together.
Give bare numbers, in nM.

Here are 4 compounds together with their reported answers.
COc1ccc(-c2nc3c(n2C(C)C)[C@@]2(C(=O)Nc4cc(Cl)ccc42)N(c2cc(Cl)ccc2C)C3=O)cc1 ... 11.8
COc1cc(N)ccc1-c1nc2c(n1C(C)C)[C@]1(C(=O)Nc3cc(Cl)ccc31)N(c1cc(Cl)ccc1F)C2=O ... 85.9
COc1cc(C2CC2)ncc1-c1nc2c(n1C(C)C)[C@]1(C(=O)Nc3cc(Cl)ccc31)N(c1cc(F)cc(Cl)c1)C2=O ... 321
COc1cc(C)ccc1-c1nc2c(n1C(C)C)[C@]1(C(=O)Nc3cc(Cl)ccc31)N(c1cccc(Cl)c1)C2=O ... 381

Bench note: what IC50 did CCOc1ncc(-c2nc3c(n2C(C)C)[C@]2(C(=O)Nc4cc(Cl)ccc42)N(c2cc(Cl)ccc2C)C3=O)c(OC)n1 show? 91

====

- ASSAYED SYSTEM: MDM2 (Homo sapiens)
- Sequence (Q00987 whole entry): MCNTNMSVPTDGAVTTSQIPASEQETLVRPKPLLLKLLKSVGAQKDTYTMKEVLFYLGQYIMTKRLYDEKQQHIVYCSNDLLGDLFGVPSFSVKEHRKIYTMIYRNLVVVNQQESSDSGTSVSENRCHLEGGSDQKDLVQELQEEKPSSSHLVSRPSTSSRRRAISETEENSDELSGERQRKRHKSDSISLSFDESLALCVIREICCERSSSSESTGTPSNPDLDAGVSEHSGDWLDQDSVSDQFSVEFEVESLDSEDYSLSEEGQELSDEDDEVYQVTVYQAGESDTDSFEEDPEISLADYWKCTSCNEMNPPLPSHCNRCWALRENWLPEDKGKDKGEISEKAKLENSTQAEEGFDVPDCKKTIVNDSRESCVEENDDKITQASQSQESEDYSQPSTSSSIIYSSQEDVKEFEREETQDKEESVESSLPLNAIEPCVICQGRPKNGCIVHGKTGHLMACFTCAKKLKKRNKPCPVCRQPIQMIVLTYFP
pIC50: −log10 of the molar value.
Classification field: enter true (1) for pIC50 values not below 8, false (0) for values below it.

COc1ncc(-c2nc3c(n2C(C)C)[C@]2(C(=O)Nc4cc(Cl)ccc42)N(c2cc(C)cc(Cl)c2)C3=O)c(OC)n1 ... false (0)

Test whether the molecule COc1cc(OC)c(-c2nc3c(n2C(C)C)[C@]2(C(=O)Nc4cc(Cl)ccc42)N(c2cc(Cl)ccc2F)C3=O)cn1 records pIC50 of 8 or higher. false (0)

Test whether the molecule CCOc1cc(OC)c(-c2nc3c(n2C(C)C)[C@]2(C(=O)Nc4cc(Cl)ccc42)N(c2cc(F)cc(Cl)c2)C3=O)cn1 records pIC50 of 8 or higher. false (0)

Test whether the molecule COc1cc(N(C)C)c(F)cc1-c1nc2c(n1C(C)C)[C@@]1(C(=O)Nc3cc(Cl)ccc31)N(c1cc(Cl)ccc1C)C2=O records pIC50 of 8 or higher. true (1)

Test whether the molecule COc1nc(N(C)C)ncc1-c1nc2c(n1C(C)C)[C@@]1(C(=O)Nc3cc(Cl)ccc31)N(c1cc(Cl)ccc1C)C2=O records pIC50 of 8 or higher. true (1)

====

Answer each item with its documented log10(AUC(0-inf)).
- ASSAY COMMENT: Pharmacokinetics in ICR mice after intravenous and intragastric administration
- Assay type: in vivo
- CONDITION PARAMETERS: male, ICR, mouse, plasma, po, 5 mg/kg, ICR mice, PO 5 mg/kg, mean of 3 animals
Log10 applied to AUC(0-inf); unit prior to transform: ng·h/mL.

Here are 4 compounds together with their reported answers.
COc1cc(OC)c(-c2nc3c(n2C(C)C)[C@@]2(C(=O)Nc4cc(Cl)ccc42)N(c2cc(Cl)cnc2C)C3=O)cn1 [Example S-131] ... 3.75
COc1nc(N(C)C)ncc1-c1nc2c(n1C(C)C)[C@@]1(C(=O)Nc3cc(Cl)ccc31)N(c1cc(Cl)cnc1C)C2=O [Example S-135] ... 3.95
COc1cc(OC(C)C)ncc1-c1nc2c(n1C(C)C)[C@@]1(C(=O)Nc3cc(Cl)ccc31)N(c1cc(Cl)ccc1C)C2=O [Example S-69] ... 4.94
CCOc1cc(OC)c(-c2nc3c(n2C(C)C)[C@@]2(C(=O)Nc4cc(Cl)ccc42)N(c2cc(Cl)cnc2C)C3=O)cn1 [Example S-96] ... 3.99

Let us examine a further case.
Bench note: what log10(AUC(0-inf)) did CCOc1ncc(-c2nc3c(n2C(C)C)[C@@]2(C(=O)Nc4cc(Cl)ccc42)N(c2cc(Cl)cnc2C)C3=O)c(OC)n1 [Example S-134] show? 3.89
